Reference source for all entries: the supplement of paper PMC4466236

Tested on: MvaT
experiment.summary: PBM 8-mer E-score (mean of HK and ME arrays) (E-score (dimensionless, -0.5 to 0.5)); higher = stronger relative binding preference
The full ranking holds about 33,000 sequences; the median of “E-score (dimensionless, -0.5 to 0.5)” is about -0.058, and the highest 2% start at about 0.35. The sample holds the highest values, similar sequences and a random draw of the others, so the mix is not that of the screen.
PBM 8-mer E-score: recorded values
Lab note: write the figure by itself, no unit.

Inquiry: Give the measured PBM 8-mer E-score of ACGGCAGA .
Reply text: -0.166

Inquiry: Try this sequence next: CTATATGA
Reply text: 0.124

Inquiry: Now this one: ACATATGG
Reply text: 0.145

Inquiry: Moving on to AAATTACC
Reply text: 0.212

Inquiry: Subsequent entry: GATAATAA
Reply text: 0.404

Inquiry: Same read-out for GAATTAGA ?
Reply text: 0.106

Inquiry: Consider next the sequence TAATTACA in the same way.
Reply text: 0.384

Inquiry: Field entry: GTGATAAA
Reply text: 0.211

Inquiry: Also, ATATATGA please.
Reply text: 0.439

Inquiry: One more sequence: ACGTAAAC
Reply text: -0.0262
